The reported numbers originate from paper PMC7327383.

assayed.target: UniProt:P25100
experimental.protocol: [3H]prazosin whole-cell competition binding, CHO-α1D cells
particulars: ratio of KD values; higher α1D affinity (site 1 KD)
Task for the reader: assign each of the following compounds its reported Selectivity ratio α1A vs α1D.
Answers are plain numbers, in fold.

Field: example entries. Status: answers known.
>>> reported_value("O=C1NCN(c2ccccc2)C12CCN(CC1COc3ccccc3O1)CC2 (stereo not shown)")
10
>>> reported_value("Cn1cc(C(F)(F)F)nc1-c1ccc(OCC(O)CNCCOc2ccc(O)c(C(N)=O)c2)cc1 (stereo not shown) [CGP20712A]")
1.1
>>> reported_value("CCS(=O)(=O)N1CCC[C@@H]2CN3CCc4cc(OC)ccc4[C@@H]3C[C@@H]21")
2.1
>>> reported_value("COc1cc2nc(N3CCN(C(=O)c4ccco4)[C@H]4CCCC[C@H]43)nc(N)c2cc1OC (racemic)")
9.5
>>> reported_value("COc1ccc(C(CN(C)C)C2(O)CCCCC2)cc1 (stereo not shown)")
4.9
>>> reported_value("CCn1ccnc1CC1COc2ccccc2O1 (stereo not shown)")
2.6

# query: Selectivity ratio α1A vs α1D of entry CN1CC[C@]2(CCN3CCc4c(oc5ccccc45)[C@@H]3C2)N(C)C1=O.Cl
3.5

----------
Task for the reader: assign each of the following compounds its reported Selectivity ratio α1A vs α1B.
assayed.target: human α1A-adrenoceptor (Homo sapiens)
Construct: CHO cells stably expressing either the full‐length human α1A, α1B, or α1D‐adrenoceptor
experimental.protocol: [3H]prazosin whole-cell competition binding, CHO-α1A cells
particulars: ratio of KD values; printed under α1A = higher α1A affinity; 1.0 under vs = none
Answers are plain numbers, in fold.

>>> reported_value("CC(C)(Cc1c[nH]c2ccc(Cl)cc12)NCCOc1ccccc1OCC1CC1.Cl")
52
>>> reported_value("O=C1Cc2cc(CCN3CCN(c4nsc5ccccc45)CC3)c(Cl)cc2N1")
11
>>> reported_value("O=C1NCN(c2ccccc2)C12CCN(CC1COc3ccccc3O1)CC2 (centres unmarked)")
2.8
>>> reported_value("CC(C)NCC(O)COc1cccc2[nH]c3ccccc3c12 (centres unmarked)")
78
>>> reported_value("CC(CN1c2ccccc2Sc2ccccc21)N(C)C (centres unmarked)")
8.7

Parameter requested: Selectivity ratio α1A vs α1B. Apply to each item below.
1. CN(C)CC/C=C1\c2ccccc2CSc2ccccc21 [Dosulepin]
2. COC1(C2=NCCN2)COc2ccccc2O1 (centres unmarked)
3. COc1cc2nc(N3CCN(C(=O)c4ccco4)[C@H]4CCCC[C@H]43)nc(N)c2cc1OC (racemic)
4. C[C@H](Cc1cc2c(c(C(N)=O)c1)N(CCCO)CC2)NCCOc1ccccc1OCC(F)(F)F
5. CC(C(O)c1ccc(O)cc1)N1CCC(Cc2ccccc2)CC1 (centres unmarked)
6. CC(C)(C)NCC(O)COc1cccc2[nH]c(C#N)cc12 (centres unmarked)
7. CCS(=O)(=O)N1CCC[C@@H]2CN3CCc4cc(OC)ccc4[C@@H]3C[C@@H]21

1: 68; 2: 11; 3: 1.6; 4: 1288; 5: 15; 6: 4.8; 7: 5.8

Parameter requested: Selectivity ratio α1A vs α1B. Apply to each item below.
1. O=C1c2ccccc2CCC1CNCCc1ccc(O)cc1 (centres unmarked)
2. O=C1CCC(=O)N1C[C@H]1CC[C@H]2CN(c3ncccn3)CCN2C1 [Sunepitron]
3. COc1ccccc1N1CCN(CCCNc2cc(=O)n(C)c(=O)n2C)CC1
4. CN(CCCN1c2ccccc2CCc2ccccc21)CC(=O)c1ccc(Cl)cc1

[3.4, 13, 51, 32]

----------
assayed.target: full-length human α1D-adrenoceptor (Homo sapiens, UniProt P25100)
Sequence (P25100 whole entry): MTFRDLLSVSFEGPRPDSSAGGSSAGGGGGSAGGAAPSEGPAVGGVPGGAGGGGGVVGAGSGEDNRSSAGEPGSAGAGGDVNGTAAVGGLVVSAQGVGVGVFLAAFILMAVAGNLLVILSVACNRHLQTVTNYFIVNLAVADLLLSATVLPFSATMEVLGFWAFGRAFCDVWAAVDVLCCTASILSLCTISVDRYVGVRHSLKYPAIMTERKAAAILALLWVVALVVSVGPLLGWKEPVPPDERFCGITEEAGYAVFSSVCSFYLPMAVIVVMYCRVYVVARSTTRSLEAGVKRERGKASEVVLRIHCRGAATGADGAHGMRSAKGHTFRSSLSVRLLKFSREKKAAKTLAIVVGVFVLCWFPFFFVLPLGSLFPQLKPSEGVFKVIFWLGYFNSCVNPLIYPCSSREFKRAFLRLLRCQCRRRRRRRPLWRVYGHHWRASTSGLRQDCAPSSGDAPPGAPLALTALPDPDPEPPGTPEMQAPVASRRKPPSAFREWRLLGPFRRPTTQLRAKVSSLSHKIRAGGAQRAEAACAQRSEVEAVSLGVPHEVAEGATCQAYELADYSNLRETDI
experimental.protocol: [3H]prazosin whole-cell competition binding, CHO-α1D cells
Task for the reader: assign each of the following compounds its reported Selectivity ratio α1B vs α1D.
Answers are plain numbers, in fold.

>>> reported_value("CN[C@H]1CC[C@@H](c2ccc(Cl)c(Cl)c2)c2ccccc21 [Sertraline]")
1.4
>>> reported_value("CN1CCc2cccc(Cl)c2CC1 [SKF86466]")
1.7

For full-length human α1D-adrenoceptor (Homo sapiens, UniProt P25100), provide Selectivity ratio α1B vs α1D of Cc1nc2n(c(=O)c1CCN1CCC(c3noc4cc(F)ccc34)CC1)CCCC2O (stereo not shown) [Paliperidone] please.
1.3

----------
assayed.target: human α1A-adrenoceptor (Homo sapiens)
Construct: CHO cells stably expressing either the full‐length human α1A, α1B, or α1D‐adrenoceptor
experimental.protocol: [3H]prazosin whole-cell competition binding, CHO-α1A cells
particulars: Log KD α1A, single-component inhibition curve; given as log KD (negative); mean ± SE mean
quantity.kind: Kd (nM)
Numbers only, in nM.

Field: example entries. Status: answers known.
>>> reported_value("CNCCC=C1c2ccccc2CCc2ccccc21")
18.2
>>> reported_value("CN(C)CCC=C1c2ccccc2CCc2ccccc21")
6.46

Okay, now this compound:
# query: Kd of entry CN(C)CCCN1c2ccccc2CCc2ccc(Cl)cc21
7.59

----------
assayed.target: human α1B-adrenoceptor (Homo sapiens)
Construct: CHO cells stably expressing either the full‐length human α1A, α1B, or α1D‐adrenoceptor
Sequence (P35368 whole entry): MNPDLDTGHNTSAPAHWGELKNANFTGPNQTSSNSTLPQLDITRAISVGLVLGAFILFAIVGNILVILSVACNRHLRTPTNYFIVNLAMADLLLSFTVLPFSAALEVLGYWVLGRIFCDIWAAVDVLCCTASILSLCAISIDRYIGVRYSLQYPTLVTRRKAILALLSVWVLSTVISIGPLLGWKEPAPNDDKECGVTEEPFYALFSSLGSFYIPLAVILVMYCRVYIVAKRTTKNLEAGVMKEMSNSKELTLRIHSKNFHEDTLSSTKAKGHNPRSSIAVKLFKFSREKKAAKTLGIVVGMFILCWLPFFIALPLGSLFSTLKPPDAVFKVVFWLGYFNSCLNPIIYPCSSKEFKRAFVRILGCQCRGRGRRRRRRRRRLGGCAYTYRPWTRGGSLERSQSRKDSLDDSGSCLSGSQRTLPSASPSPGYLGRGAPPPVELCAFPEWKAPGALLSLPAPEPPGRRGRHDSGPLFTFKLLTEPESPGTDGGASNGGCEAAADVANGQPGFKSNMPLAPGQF
experimental.protocol: [3H]prazosin whole-cell competition binding, CHO-α1B cells
particulars: single-component inhibition curve; given as log KD (negative); mean ± SE mean
Classify as follows. Reported Log KD α1B greater than or equal to -7: true. Reported Log KD α1B below: false.

Worked examples, 3 compounds total:
>>> classification("COc1ccccc1N1CCN(CC2CN3C(=O)N(C)c4ccccc4C3=N2)CC1 (centres unmarked)")
"false"
>>> classification("CCS(=O)(=O)N1CCC[C@@H]2CN3CCc4cc(OC)ccc4[C@@H]3C[C@@H]21")
"true"
>>> classification("Cc1c[nH]c(=O)n(CCCN2CCN(c3ccccc3OCC(F)(F)F)CC2)c1=O")
"true"

Attention now turns to another entry.
Evaluate N=C(CC(O)COc1ccccc1-c1ccccc1)N1CCCCC1 (centres unmarked) [AH11110A] : Log KD α1B at minimum -7?
true

----------
assayed.target: human α1A-adrenoceptor (Homo sapiens, UniProt P35348)
Construct: CHO cells stably expressing either the full‐length human α1A, α1B, or α1D‐adrenoceptor
Sequence (P35348 1-466): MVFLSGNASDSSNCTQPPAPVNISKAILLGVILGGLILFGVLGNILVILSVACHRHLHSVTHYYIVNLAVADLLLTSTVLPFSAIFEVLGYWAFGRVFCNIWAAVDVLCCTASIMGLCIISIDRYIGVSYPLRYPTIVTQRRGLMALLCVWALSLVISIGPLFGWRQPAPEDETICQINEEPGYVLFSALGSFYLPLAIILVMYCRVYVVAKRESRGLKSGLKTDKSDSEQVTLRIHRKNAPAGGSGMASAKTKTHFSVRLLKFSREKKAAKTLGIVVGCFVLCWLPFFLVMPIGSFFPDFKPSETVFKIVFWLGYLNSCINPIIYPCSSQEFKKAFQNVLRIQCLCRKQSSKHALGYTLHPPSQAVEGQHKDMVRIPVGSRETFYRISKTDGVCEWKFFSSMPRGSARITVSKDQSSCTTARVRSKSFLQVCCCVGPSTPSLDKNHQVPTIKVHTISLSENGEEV
experimental.protocol: [3H]prazosin whole-cell competition binding, CHO-α1A cells
particulars: single-component inhibition curve; given as log KD (negative); mean ± SE mean
quantity.kind: Log KD α1A
Numbers only.

Field: example entries. Status: answers known.
>>> reported_value("CCS(=O)(=O)N1CCC[C@@H]2CN3CCc4cc(OC)ccc4[C@@H]3C[C@@H]21")
"−5.75"
>>> reported_value("N=C(CC(O)COc1ccccc1-c1ccccc1)N1CCCCC1 (stereo not drawn) [AH11110A]")
"−6.48"
>>> reported_value("COc1cccc(OC)c1OCCNCC1COc2ccccc2O1 (stereo not drawn)")
"−9.03"
>>> reported_value("Cc1c[nH]c(=O)n(CCCN2CCN(c3ccccc3OCC(F)(F)F)CC2)c1=O")
"−9.60"
>>> reported_value("CC1c2ccccc2CN1CC1=NCCN1 (stereo not drawn)")
"−5.92"
>>> reported_value("COc1ccccc1N1CCN(CCN2C(=O)c3ccccc3C(C)(C)C2=O)CC1")
"−9.35"
>>> reported_value("CC(C)OC(=O)c1cc2c(OCC(O)CNC(C)(C)C)cccc2[nH]1 (stereo not drawn)")
"−5.24"
>>> reported_value("CN1[C@H]2C[C@H](OC(=O)[C@H](CO)c3ccccc3)C[C@@H]1[C@@H](O)C2")
"−5.21"
>>> reported_value("COC1(C2=NCCN2)COc2ccccc2O1 (stereo not drawn)")
"−6.51"
>>> reported_value("COc1ccccc1N1CCN(CC2CN3C(=O)N(C)c4ccccc4C3=N2)CC1 (stereo not drawn)")
"−9.06"

Parameter requested: Log KD α1A. Apply to each item below.
1. CN1CC[C@]2(CCN3CCc4c(oc5ccccc45)[C@@H]3C2)N(C)C1=O.Cl
2. COc1cccc2c1CCC[C@H]2CN(C)CCc1ccc2ccoc2c1.CS(=O)(=O)O
3. COc1cccc(OC)c1OCCNCC1CSc2ccccc2O1 (stereo not drawn)

−6.76
−6.57
−9.08

Parameter requested: Log KD α1A. Apply to each item below.
1. COc1ccccc1N1CCN(CCn2c(=O)[nH]c3c([nH]c4ccccc43)c2=O)CC1
2. CCN1CCCC1CNC(=O)c1cc(S(=O)(=O)CC)c(N)cc1OC (stereo not drawn) [Amisulpiride]
3. CNCCCN1c2ccccc2CCc2ccc(Cl)cc21
4. CN1CCN(c2ccc(Nc3c4ccccc4nc4ccccc34)cc2)CC1
5. COc1ccccc1N1CCN(CCCNc2c(C)c(=O)n(C)c(=O)n2C)CC1
6. O=C1Nc2ccccc2C2=NC(CN3CCN(c4ccccc4)CC3)CN12 (stereo not drawn)
7. O=C1c2ccccc2CCC1CNCCc1ccc(O)cc1 (stereo not drawn)

−9.57
−5.05
−7.52
−6.21
−8.23
−8.19
−8.57

# query: Log KD α1A of entry COc1ccc(NC(=O)N2CCc3c2ccc2ccccc32)cc1N1CCN(C)CC1
−5.90
